The values you see were collected from patent US20260234159A1.

Assay: In vivo toxicological study in rats: haematology
Design: species or system rats of the Wistar strain
Conditions: female, 100 mg/kg oral daily 7 d
So I've got a bunch of compounds here, and I need their MCV values.
Quick note: give the figure in fL, leave out the unit.

Item under review: N#Cc1c(NC(=O)c2cccc3ccccc23)sc2c1CCN(CC(=O)Nc1cccc(Br)c1)C2 [PKL-B171] . Reported MCV? 55.5

Now the same for COc1ccccc1NC(=O)N1CCc2c(sc(NC(=O)c3cccc4ccccc34)c2C#N)C1 [PKL-A152] 57.4

// query: N#Cc1c(NC(=O)c2cccc3ccccc23)sc2c1CCN(C(=O)Nc1ccccc1OC(F)(F)F)C2 [PKL-A159] 53.8

Repeat for the following compound: COc1ccc(C(=O)Nc2sc3c(c2C#N)CCCCC3)cc1OC [PKL-A135] 58.4

====

Experiment: In vivo toxicological study in rats: haematology
Set-up: species or system rats of the Wistar strain
Conditions: female, 300 mg/kg oral daily 7 d
Assignment: determine reported LYM for the given compounds.

Fill in the blank: the reported LYM of COc1ccccc1NC(=O)N1CCc2c(sc(NC(=O)c3cccc4ccccc34)c2C#N)C1 [PKL-A152] is ____. 4.8 10^9/l

Query N#Cc1c(NC(=O)c2cccc3ccccc23)sc2c1CCN(C(=O)Nc1ccccc1OC(F)(F)F)C2 [PKL-A159] next 5.3 10^9/l

Queued: N#Cc1c(NC(=O)c2cccc3ccccc23)sc2c1CCN(CC(=O)Nc1cccc(Br)c1)C2 [PKL-B171] 5.7 10^9/l

Same read-out for COc1ccc(C(=O)Nc2sc3c(c2C#N)CCCCC3)cc1OC [PKL-A135] ? 5.1 10^9/l

====

Assay: In vivo toxicological study in rats: haematology
Set-up: species or system rats of the Wistar strain
Conditions: male, 30 mg/kg oral daily 7 d
reported_metric: GRAN

Could you share which GRAN value was measured for N#Cc1c(NC(=O)c2cccc3ccccc23)sc2c1CCN(CC(=O)Nc1cccc(Br)c1)C2 ? 1.17 10^9/l

Do the same for COc1ccc(C(=O)Nc2sc3c(c2C#N)CCCCC3)cc1OC please 1.83 10^9/l

What about N#Cc1c(NC(=O)c2cccc3ccccc23)sc2c1CCN(C(=O)Nc1ccccc1OC(F)(F)F)C2 ? 1.03 10^9/l

# iterate: COc1ccccc1NC(=O)N1CCc2c(sc(NC(=O)c3cccc4ccccc34)c2C#N)C1 1.50 10^9/l

====

Assay: In vivo toxicological study in rats: haematology
Set-up: species or system rats of the Wistar strain
Details: male, 300 mg/kg oral daily 7 d
reported_metric: HCT
# output: numeric value plus its unit

Could you tell me which HCT is on file for N#Cc1c(NC(=O)c2cccc3ccccc23)sc2c1CCN(CC(=O)Nc1cccc(Br)c1)C2 ? 43.6%

Ok, now COc1ccccc1NC(=O)N1CCc2c(sc(NC(=O)c3cccc4ccccc34)c2C#N)C1 45.6%

Try the compound COc1ccc(C(=O)Nc2sc3c(c2C#N)CCCCC3)cc1OC 43.8%

Another compound to check: N#Cc1c(NC(=O)c2cccc3ccccc23)sc2c1CCN(C(=O)Nc1ccccc1OC(F)(F)F)C2 42.4%

====

For each of the compounds below, state its HCT.
Test: In vivo toxicological study in rats: haematology
Set-up: species or system rats of the Wistar strain
Settings: female, 100 mg/kg oral daily 7 d
Enter your answer as a number in %; do not include the unit.

HCT for N#Cc1c(NC(=O)c2cccc3ccccc23)sc2c1CCN(CC(=O)Nc1cccc(Br)c1)C2 ? 40.8

Now this one: COc1ccc(C(=O)Nc2sc3c(c2C#N)CCCCC3)cc1OC 42.1

Another compound: COc1ccccc1NC(=O)N1CCc2c(sc(NC(=O)c3cccc4ccccc34)c2C#N)C1 42.0

// next record N#Cc1c(NC(=O)c2cccc3ccccc23)sc2c1CCN(C(=O)Nc1ccccc1OC(F)(F)F)C2 41.2

====

System: HepG2 cells
Experiment: Triglyceride (TAG) measurement assay, one week steatosis model
Assay type: cell-based, human
Details: Homo sapiens, HepG2, 168 h; ratio between TAG content and cell viability; Control 100.0; read-out: TAG/cell viability
reported_metric: activity at 10 µM (%)
Give the value, in units of %, as a plain number.

Under HepG2 cells: activity at 10 µM value of CC(C)(C)OC(=O)N1CCc2c(sc(NC(=O)c3cccc4ccccc34)c2C#N)C1 ? 29.3

Input C=CCN1CCc2c(sc(NC(=O)c3cccc4ccccc34)c2C#N)C1 49.9

Next up: N#Cc1c(NC(=O)c2cccc3ccccc23)sc2c1CCN(C(=O)Nc1ccccc1[N+](=O)[O-])C2 30.3

Also need N#Cc1c(NC(=O)c2cccc3ccccc23)sc2c1CCN(CC(=O)NC1CCOCC1)C2 , thanks. 49.6
